test system: Fer (mouse); test: phosphorylation enrichment, bacterial display (enrichment ratio); higher = better substrate or ligand; peptides without Tyr show the background;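 also: 11-residue human phosphosite peptides and single-mutation variants displayed on the E. coli surface, counted by deep sequencing, each peptide's frequency after selection divided by its frequency in the unselected input library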;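 also: frequency after pTyr selection over input frequency; kinase dosed for 20-30% of maximal phosphorylation in three min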
# phosphorylation enrichment per entry
measurement name: phosphorylation enrichment

1. PLDGEYSTLQI [TP53_Y327_F328S]    3.56
2. RCFVFYFSFLL [PTEN_Y177_R173C_YF]    0.432
3. ALCHYYKLNII [ETV6_Y402_R399C]    0.615
4. NPQKSYFICLY [WAS_Y83_R86C]    0.496
5. KVALLYKPFFF [POLE_Y100_P99L_YF]    1.39
6. NACGLYYKLHN [GATA2_Y376]    0.56
7. FTNRSYDLDYD [MYC_Y12_N11S]    0.488
8. RPYVYYYSYLL [PTEN_Y177_R173P]    0.931
9. GISDEYHVIRR [GCDH_Y398_H403R]    0.471
10. KPPPSYESEEE [BRD4_Y599_T598S]    0.557
11. PVRIAYGRPRG [SUGP2_Y985_D986G]    0.61
12. LYDPDFMKVIL [CYP4A22_Y104_Y104F]    1.09
13. RSSKTYLKTRS [LPL_Y329_M328T]    0.708
14. FLQTDDTSQVS [FRMPD1_Y846_Y846D]    0.49
15. CEHFSYFGMKA [SLC15A2_Y60_R57H_YF]    0.452
16. HIILLYIFLKN [STXBP1_Y411_R406H]    0.495
17. PYTDPYYDYEI [ZC3H18_Y371_A368T]    4.55
18. SHGKQYRVPSD [HHIPL2_Y395_R394Q]    0.354
19. SQSPHYFRSGQ [GPATCH8_Y1038_R1043Q]    0.359
20. RRNTYYASIAK [ACADM_Y353]    0.611
21. LLVVLCKYRCY [PSEN1_Y154_Y154C]    0.353
22. QDIMAYRSREV [BCL6_Y157_G159S]    0.196
23. RELGEYGLQAY [ALDH2_Y497]    0.949
24. VPEANYTSDEE [STK33_Y439_D436E]    0.721
25. AEPDIYQEKLS [USP54_Y1233]    0.485
26. GPCKAYELSQR [SETX_Y1297_R1294C]    0.496
27. AVNDFYAAKKT [CCDC178_Y422]    0.381
28. REVPVYISEDS [SYNM_Y460_G462S]    1.2

Reference source for all entries: the supplement of paper PMC10065799
